system: c-Abl (mouse); assay: phosphorylation enrichment, bacterial display (enrichment ratio); higher = better substrate or ligand; peptides without Tyr show the background;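 further: 11-residue human phosphosite peptides and single-mutation variants displayed on the E. coli surface, counted by deep sequencing, each peptide's frequency after selection divided by its frequency in the unselected input library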;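 further: frequency after pTyr selection over input frequency; kinase dosed for 20-30% of maximal phosphorylation in three min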
Label false if phosphorylation enrichment falls below 0.6; label true in every other case.

| SEQUENCE_ENTRY | LABEL_VALUE |
| --- | --- |
| LGSNGYKKLLK [SEPSECS_Y334] | false |
| NYCPGYNNFYN [USH2A_Y467_R464C] | true |
| PMQLPHDSTWE [PDGFRB_Y589_Y589H] | true |
| YSTDCYRVGGH [NTRK2_Y707_Y706C] | true |
| ALEQKYWALGQ [MAP1A_Y1555] | false |

Hello, I need to know if YAFQLYDLDPD [CHP2_Y123_R127P] has measured phosphorylation enrichment not below 0.6. Thanks!
true

Hello, I need to know if SSKILYHIIKG [CDH17_Y489] has measured phosphorylation enrichment not below 0.6. Thanks!
false

Hello, I need to know if QDDTVYMGKVT [DCTN1_Y1244] has measured phosphorylation enrichment not below 0.6. Thanks!
true

Hello, I need to know if EVEPRYVVLYD [ERCC4_Y577] has measured phosphorylation enrichment not below 0.6. Thanks!
true

Hello, I need to know if ELTSKYRGGGG [HBA1_Y141_V136E] has measured phosphorylation enrichment not below 0.6. Thanks!
false

Hello, I need to know if RTVPLYESPRK [DDB1_Y718] has measured phosphorylation enrichment not below 0.6. Thanks!
true

Hello, I need to know if CTTIHSNYMCN [TP53_Y234_Y234S] has measured phosphorylation enrichment not below 0.6. Thanks!
false

* * *

Measured phosphorylation enrichment, listed per entry for reference.
biological target: FGFR3 (UniProt P22607); test: phosphorylation enrichment, bacterial display (enrichment ratio); higher = better substrate or ligand; peptides without Tyr show the background
Sequence (P22607 whole entry, looked up): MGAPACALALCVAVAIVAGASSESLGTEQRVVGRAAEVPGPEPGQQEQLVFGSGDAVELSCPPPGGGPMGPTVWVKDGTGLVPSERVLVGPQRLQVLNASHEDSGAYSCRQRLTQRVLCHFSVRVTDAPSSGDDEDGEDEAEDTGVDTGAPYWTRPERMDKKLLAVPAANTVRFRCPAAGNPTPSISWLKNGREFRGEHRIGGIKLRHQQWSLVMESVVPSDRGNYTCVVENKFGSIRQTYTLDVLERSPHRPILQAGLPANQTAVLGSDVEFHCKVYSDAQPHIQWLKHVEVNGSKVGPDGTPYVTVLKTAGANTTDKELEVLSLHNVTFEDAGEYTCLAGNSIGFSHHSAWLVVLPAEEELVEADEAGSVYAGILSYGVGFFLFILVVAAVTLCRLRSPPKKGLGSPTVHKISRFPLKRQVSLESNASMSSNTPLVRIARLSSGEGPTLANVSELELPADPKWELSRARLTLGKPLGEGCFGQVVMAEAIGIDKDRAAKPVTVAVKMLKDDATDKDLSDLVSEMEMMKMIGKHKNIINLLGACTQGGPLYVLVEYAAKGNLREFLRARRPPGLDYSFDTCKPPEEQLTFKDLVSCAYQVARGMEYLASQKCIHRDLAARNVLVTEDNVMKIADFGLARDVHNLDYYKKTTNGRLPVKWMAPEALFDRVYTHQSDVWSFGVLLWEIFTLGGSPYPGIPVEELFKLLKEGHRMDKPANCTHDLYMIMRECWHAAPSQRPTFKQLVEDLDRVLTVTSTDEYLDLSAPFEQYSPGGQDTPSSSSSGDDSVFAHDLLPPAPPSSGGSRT
Format: numeric value only, no unit, no commentary.

Answered cases to consult:
| SEQUENCE_ENTRY | phosphorylation enrichment |
| --- | --- |
| LQEKSYIKGTS [LCTL_Y331] | 1.08 |
| MSRYIYSTDYY [NTRK1_Y676_D674Y] | 6.27 |
| KILAKYLLETS [NAMPT_Y175] | 0.421 |
| GIVEDYRPPVF [ACVRL1_Y421_F425V_YF] | 0.51 |
| GMSQAYSSSQR [DES_Y5] | 0.382 |

I would be grateful if you could share the reported phosphorylation enrichment for PAIYTYDEYKK [COL8A2_Y648_T645I] .
2.2

I would be grateful if you could share the reported phosphorylation enrichment for IVGRLYRLLTE [SETX_Y1978_L1976R] .
0.644

I would be grateful if you could share the reported phosphorylation enrichment for DDFNLYINVKL [MTHFD1_Y52_S49F] .
0.997

I would be grateful if you could share the reported phosphorylation enrichment for GEIQEYGAPLD [ABCC1_Y1508_S1512L] .
0.798

I would be grateful if you could share the reported phosphorylation enrichment for GQDLLYEDEDL [PACS1_Y303_F302L] .
0.889

I would be grateful if you could share the reported phosphorylation enrichment for VIGRMYDFHVL [RPF2_Y109_YF] .
0.607

* * *

molecular target: MERTK (UniProt Q12866); assay: phosphorylation enrichment, bacterial display (enrichment ratio); higher = better substrate or ligand; peptides without Tyr show the background
Sequence (Q12866 whole entry, looked up): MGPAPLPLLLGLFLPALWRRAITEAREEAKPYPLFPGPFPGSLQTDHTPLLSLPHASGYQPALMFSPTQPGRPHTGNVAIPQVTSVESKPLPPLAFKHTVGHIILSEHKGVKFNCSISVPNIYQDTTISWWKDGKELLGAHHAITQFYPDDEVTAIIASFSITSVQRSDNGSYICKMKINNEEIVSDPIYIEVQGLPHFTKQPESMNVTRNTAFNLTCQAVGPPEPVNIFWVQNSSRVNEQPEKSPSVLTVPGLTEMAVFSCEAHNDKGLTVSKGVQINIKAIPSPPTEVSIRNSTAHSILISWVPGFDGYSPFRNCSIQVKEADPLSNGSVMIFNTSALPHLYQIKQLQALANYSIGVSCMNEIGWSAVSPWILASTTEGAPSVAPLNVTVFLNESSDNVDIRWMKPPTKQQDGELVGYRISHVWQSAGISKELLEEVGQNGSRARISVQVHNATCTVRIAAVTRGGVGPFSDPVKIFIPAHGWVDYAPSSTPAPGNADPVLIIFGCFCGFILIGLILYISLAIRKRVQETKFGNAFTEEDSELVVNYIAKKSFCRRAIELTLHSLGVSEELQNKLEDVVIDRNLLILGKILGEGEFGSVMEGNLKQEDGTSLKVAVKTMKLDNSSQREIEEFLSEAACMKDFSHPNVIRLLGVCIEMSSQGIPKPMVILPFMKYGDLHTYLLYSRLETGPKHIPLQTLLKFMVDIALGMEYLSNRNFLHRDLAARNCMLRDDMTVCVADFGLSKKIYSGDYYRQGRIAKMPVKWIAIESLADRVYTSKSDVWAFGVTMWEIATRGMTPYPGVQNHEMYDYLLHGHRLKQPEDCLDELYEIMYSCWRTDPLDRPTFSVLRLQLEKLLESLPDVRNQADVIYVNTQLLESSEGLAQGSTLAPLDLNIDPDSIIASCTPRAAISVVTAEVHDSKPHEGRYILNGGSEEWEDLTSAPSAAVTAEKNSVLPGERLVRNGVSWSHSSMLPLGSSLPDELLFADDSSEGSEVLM
Label Not fulfilled if phosphorylation enrichment falls below 0.5; label Fulfilled in every other case.

Worked examples follow.
| SEQUENCE_ENTRY | LABEL_VALUE |
| --- | --- |
| PEAALYGRFTI [FYN_Y440] | Fulfilled |
| EKEQNYDLTEV [ECD_Y448] | Fulfilled |
| RAYSWYQHQRA [NDST1_Y714] | Fulfilled |
| ELPEKYSQNIF [PKP2_Y626_YF] | Fulfilled |
| KSPDSYQKILL [ATM_Y1415] | Not fulfilled |

Hello, I need to know if VKPENYRRPDI [VHL_Y175_L178P] has measured phosphorylation enrichment not below 0.5. Thanks!
Not fulfilled

Hello, I need to know if VGNPAYRSFSN [IL4R_Y497_A492V] has measured phosphorylation enrichment not below 0.5. Thanks!
Not fulfilled
